# System: Streptococcus pneumoniae
# Protocol text: Antimicrobial activity against Streptococcus pneumoniae 6 constitutively expressing ermB after 20 hrs by agar dilution method
# Type: functional
# Condition context: Streptococcus pneumoniae, 20 h; read-out: MIC
Quick reference: MIC of the listed items.

Consider the reported MIC for these compounds:
- Compound: "CCOC(=O)[C@H]1[C@H](C)O[C@@H](O[C@H]2[C@H](N(C)C)[C@@H](O)[C@H](O[C@H]3[C@@H](CC=O)C[C@@H](C)[C@@H](O)CN(C)CCC[C@H](C/C=C/c4cccc5ccccc45)OC(=O)C[C@@H](OC(=O)CC)[C@@H]3OC)O[C@@H]2C)C[C@@]1(C)O"
  System tested: "Streptococcus pneumoniae"
  MIC: "64 µg/mL"
- Compound: "CCOC(=O)[C@H]1[C@H](C)O[C@@H](O[C@H]2[C@H](N(C)C)[C@@H](O)[C@H](O[C@H]3[C@@H](CC=O)C[C@@H](C)[C@@H](O)CN(C)CCC(C/C=C/c4cnc5ccccc5c4)NC(=O)C[C@@H](OC(=O)CC)[C@@H]3OC)O[C@@H]2C)C[C@@]1(C)O (stereo in doubt; form 1)"
  System tested: "Streptococcus pneumoniae"
  MIC: "> 128 µg/mL"
- Compound: "CCOC(=O)[C@H]1[C@H](C)O[C@@H](O[C@H]2[C@H](N(C)C)[C@@H](O)[C@H](O[C@H]3[C@@H](CC=O)C[C@@H](C)[C@@H](O)CN(C)CC(CCCc4ccnc5ccccc45)CCOC(=O)C[C@@H](OC(=O)CC)[C@@H]3OC)O[C@@H]2C)C[C@@]1(C)O (stereo in doubt; form 1)"
  System tested: "Streptococcus pneumoniae"
  MIC: "> 128 µg/mL"

The compound CCOC(=O)[C@H]1[C@H](C)O[C@@H](O[C@H]2[C@H](N(C)C)[C@@H](O)[C@H](O[C@H]3[C@@H](CC=O)C[C@@H](C)[C@@H](O)CN(C)CC(/C=C\Cc4cnc5ccccc5c4)CCOC(=O)C[C@@H](OC(=O)CC)[C@@H]3OC)O[C@@H]2C)C[C@@]1(C)O (some centres undefined) , tested on Streptococcus pneumoniae, showed MIC of > 64 µg/mL
